Values were extracted from ChEMBL document CHEMBL4513216.

test: Toxicity liver stage against HepG2, at 10uM; assay type: cell-based; set-up: test concentration 10 uM, cell line HepG2-A16-CD81EGFP; settings: human, HepG2-A16-CD81EGFP cells; read-out: INHIBITION
I'd appreciate it if you could supply cytotoxicity at 10 µM values for the items below.
In your response, the unit should come after the numeric value.

# molecule, endpoint-result
rows = [
    ("CN1CCN(C)C(CNC(=O)N(C)Cc2ccccc2Cl)C1 (configuration not stated)", "0.339%"),
    ("O=C(NCCN1CCCCC1)C(c1ccccc1)N1CCCC1 (configuration not stated)", "-1.46%"),
    ("CS(=O)(=O)c1cc(S(N)(=O)=O)ccc1NCC1CCCO1 (configuration not stated)", "6.26%"),
    ("CCn1ccnc1CN(C)c1cc(C2CC2)ncn1", "-47.9%"),
    ("Cn1nccc1CNC(=O)CCn1nc(C(F)(F)F)c(Cl)c1C1CC1", "-3.33%"),
    ("CCOCCOC(C)C(=O)Nc1ccnn1-c1ccccc1C (configuration not stated)", "-0.308%"),
    ("O=C(CCC(=O)c1cccs1)NC1(C(=O)NCC2CC2)CCCC1", "-10.6%"),
    ("CC(=O)c1cccc(NC(=O)CN2CCCCC2C(=O)N2CCCC2)c1 (configuration not stated)", "-8.82%"),
]

# per-item lookup of cytotoxicity at 10 µM; items listed below
1. CNCCc1nc2cc(F)ccc2[nH]1
2. O=C(CC1CC1)N1C[C@@H]2CCN(c3cnccn3)C[C@@H]2C1
3. O=C1CO[C@@H]2CN(Cc3cccnc3)C[C@H]2N1Cc1ccncc1
4. CC(C)c1nc(CN2CCOCC2)cs1

22%
5.03%
-77.6%
-7.49%
